Ref: patent US20240336909

Target: AxCT mask27 EpCAM H90.2 L064 version 1

{"protein": "MMP-1 (protein) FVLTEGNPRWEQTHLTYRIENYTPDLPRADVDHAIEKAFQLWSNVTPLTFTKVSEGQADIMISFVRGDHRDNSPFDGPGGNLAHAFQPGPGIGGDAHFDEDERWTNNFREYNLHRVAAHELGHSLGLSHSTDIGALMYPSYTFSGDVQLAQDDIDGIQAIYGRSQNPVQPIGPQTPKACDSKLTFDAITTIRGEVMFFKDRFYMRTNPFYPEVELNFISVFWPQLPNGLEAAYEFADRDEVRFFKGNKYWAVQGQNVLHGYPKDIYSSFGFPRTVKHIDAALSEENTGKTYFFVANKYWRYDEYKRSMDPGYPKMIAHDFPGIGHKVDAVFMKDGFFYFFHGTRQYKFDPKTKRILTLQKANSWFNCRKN", "Percent cleavage": "0%"}
{"protein": "Cathepsin G (protein) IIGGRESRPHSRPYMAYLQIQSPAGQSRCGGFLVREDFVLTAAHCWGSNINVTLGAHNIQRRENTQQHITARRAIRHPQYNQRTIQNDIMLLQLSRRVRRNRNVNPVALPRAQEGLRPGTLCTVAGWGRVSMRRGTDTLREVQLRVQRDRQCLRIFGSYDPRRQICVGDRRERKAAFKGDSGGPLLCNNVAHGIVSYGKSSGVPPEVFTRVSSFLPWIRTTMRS", "Percent cleavage": "0%"}
